FYI, the data here is from the supplement of paper PMC8882468.

Test system: HCI-023 (organoid from a triple-negative breast cancer xenograft)
PROTOCOL SUMMARY: CTG-3D luminescence at 96 h relative to day-0 seeding control (ratio to day 0); higher = more growth / less cytotoxicity; PDxO 3D drug screen (set 2), 96 h, CTG-3D normalised to day-0 seeding control.
CONDITIONS: 625 fM; days in culture: 223
Each item that follows carries a reported CTG-3D luminescence at 96 h.
The answer should be written as a number, with no unit following it.

Record request: CTG-3D luminescence at 96 h value, item Cc1c(CN2CCN(C(=O)[C@H](C)O)CC2)sc2c(N3CCOCC3)nc(-c3cnc(N)nc3)nc12 [apitolisib]
2.04

Record request: CTG-3D luminescence at 96 h value, item COc1cccc2c1C(=O)c1c(O)c3c(c(O)c1C2=O)C[C@@](O)(C(=O)CO)C[C@@H]3O[C@H]1C[C@H](N)[C@@H](O)[C@H](C)O1 [epirubicin]
2.21

Record request: CTG-3D luminescence at 96 h value, item CCOc1ccn(-c2ccc(F)cc2)c(=O)c1C(=O)Nc1ccc(Oc2ccnc(N)c2Cl)c(F)c1 [ASLAN002]
1.61

Record request: CTG-3D luminescence at 96 h value, item CC(C)n1nc(-c2ccc3oc(N)nc3c2)c2c(N)ncnc21 [sapanisertib]
2.08
